Test system: Staphylococcus aureus
Assay: Antibacterial activity against methicillin-resistant Staphylococcus aureus clinical isolate M16 by CLSI based micro-broth dilution method
Assay type: functional
Assign MIC to each entry below.
Kindly provide the numeric value in µg/mL only, without the unit symbol.

**Query** Report MIC for C=CCc1cc(-c2ccc(OCCC[N+](C)(C)CC(=O)NCCCC)c(CC=C)c2)c2oc(=S)n(Cc3cccc(OC)c3)c2c1.[Br-] tested on Staphylococcus aureus.
**Result** 4

**Query** Report MIC for C=CCc1cc(-c2ccc(OCCC[N+](C)(C)CC(=O)NCCCC)c(CC=C)c2)c2oc(=S)n(Cc3ccc(F)cc3Cl)c2c1.[Br-] tested on Staphylococcus aureus.
**Result** 16

**Query** Report MIC for C=CCc1cc(-c2ccc(OCCC[N+](C)(C)CC(=O)NCCCC)c(CC=C)c2)c2oc(=S)n(Cc3cc(Br)cc(Br)c3)c2c1.[Br-] tested on Staphylococcus aureus.
**Result** 64

Attribution: ChEMBL document CHEMBL6127052
